Test system: MS2 coat protein
Assay summary: apparent Kd, MS2 coat protein; higher = weaker binding; RNA-MaP array; theophylline 2 mM where present
Setup conditions: designed as: OFF switch for theophylline; no ligand
Observation type: apparent Kd (µM)
Express your answer in µM, writing the number without its unit.

Below: 3 sequences and their reported apparent Kd.
GUUAUGGACCUGGAUACCAGCUGGUACAAGGGCGGUCUACAUGAGGAUCACCCAUGUGUCAGCCCUUGGCAGCCAGCAACCGGCA : 0.00928
AGCGGAACGGAAGGGUCCCAAAAUUGUGAUACCAGCCUUGAAUCCGGCCCUUGGCAGCACAUGAGGAUCACCCAUGUACUGCGAU : 0.0129
UCGCAUUGCUGCGAUACCAGACAUGAGGAUCACCCAUGUACCAAGGUACGAAAAUAACAUGUCCCUUGGCAGCGCAGCAAUGCGU : 0.0128

Moving on to another sequence below.
// query Form field: apparent Kd recorded for AGCGCUGUGCAUGAUACCAGCUACAUGAGGAUCACCCAUGUGCGUCAGAAAUGACUGUGUAGCCCUUGGCAGCAUAAAGCAUGUA with MS2 coat protein (enter value)
// result 0.019

====

Tested on: MS2 coat protein
Assay summary: apparent Kd, MS2 coat protein; higher = weaker binding; RNA-MaP array; theophylline 2 mM where present
Setup conditions: ligand present: theophylline; designed as: ON switch for theophylline
Observation type: apparent Kd

Below: 2 sequences and their reported apparent Kd.
AUUUUUCUAUCAGAUACCAGACAAUUUUAGACAUGAGGAUCACCCAUGUAUAGGGUGUUCGUCCCUUGGCAGCUGUUAAGUUUAA : 205 nM
UUCAGUACAACAGAUACCAGACAGUACUCUAAAUUGCAACAUGAGGAUCACCCAUGUAUAGUCCCUUGGCAGCUGUAAUGGGUGA : 174 nM

Moving on to another sequence below.
// query Quick check: apparent Kd of CAUGUUGUUGAAGAUACCAGAUUCUGAACGUUCACAUGAGGAUCACCCAUGUAAGUCCGAGUCCCUUGGCAGCUUAUACAGGUGG ?
// result 14.7 nM

====

Tested on: MS2 coat protein
Assay summary: apparent Kd, MS2 coat protein; higher = weaker binding; RNA-MaP array
Setup conditions: ligand present: flavin mononucleotide; designed as: ON switch for flavin mononucleotide
Observation type: apparent Kd (nM)
Express your answer in nM, writing the number without its unit.

Below: 6 sequences and their reported apparent Kd.
GGAAGUAGAUGUCAGGAUAUCAAAAGCAUAACAUGAGGAUCACCCAUGUCCAAAAGGCAGAGAAUUGAGAAGGGACGUAGGUUACA : 14.4
AUUACCCCAUGAGGAUAUCCAAUAAGGAGAGACAUGAGGAUCACCCAUGUCGACGGACGCAUACAGGAGAAGGCAUGGACUAGC : 7.54
CCGCGUGCGGAAGGAUAUAUCCUAUGUUAGGAAAAUAACACAUGAGGAUCACCCAUGUCGAAGAGAUAGAAGGUCCGACAUACA : 14
AUCUAGUGCCUCAAGGAUAUGCACAGAGAGACAUGAGGAUCACCCAUGUAACAAGCAUGCUCAACGCAGAAGGUGACACUUAAGAU : 12.7
UUUUCUGAGGAGAAGGACGACCACAAACAUGAGGAUCACCCAUGUCUUACUAUCUGACCGCCAUCGUAGGAUAUCCCGAGGGAG : 10.2
GCGUGGCACUGCAUACACACAUGAGGAUCACCCAUGUAUAGUAGAAGGUUCUUCAGCGGGAACAGAAAGGAUAUACUGAUAGAU : 7.42

// query Form field: apparent Kd recorded for CACGGAAAUCAGAAGGCGCCUACACACGCAUUGCGAGGAUAUGACCGGUCGGUCCACAUGAGGAUCACCCAUGUUAACUAACGC with MS2 coat protein (enter value)
// result 12.2

// query Another sequence to check: UUAUAAGAGAUAGGAUAUUCCGACAAAAUCGAUGAAGAAGGAUCACUCAAAACAUGAGGAUCACCCAUGUAUAUAACAAAUGUU
// result 25.4

====

System: MS2 coat protein
Assay summary: apparent Kd, MS2 coat protein; higher = weaker binding; RNA-MaP array
Setup conditions: ligand present: flavin mononucleotide; designed as: OFF switch for flavin mononucleotide
# binarize apparent Kd: threshold 0.07 µM inclusive, high side 1, low side -1

Observe how each entry below is paired with its result.
ACAAUGUGAGGAUAUCGUAAGCAUGACUAUGGCGCUAACACCGAGAAGGCACAUGAGGAUCACCCAUGUCCUGA : -1
UAUGUCGGGAAGAAGGUAAUAACGGGAUUGACAUGAGGAUCACCCAUGUGUACGAGUUAGUUGCUUAAGGAUAUUCUCGCCCAU : -1
UAUGUACAUGAGGAUCACCCAUGUUAGGAUAUAUGGCCGCGCUUUAAACACCGUGCACAUAGAAGGAACAUUUG : -1

// query Quick check: does GUCCUCGAAGGAUAUAUUGGAAAUUACAUGAGGAUCACCCAUGUCUCGUAGUAUAGCACGAUAGAAGGUCGGAAGA have apparent Kd greater than or equal to 0.07 µM?
// result -1

// query Another sequence to check: ACCCGACAAGUGAGGAUAUUGAUAAGAGGAGCUUACAAGAAGGCACAUGAGGAUCACCCAUGUAUUAAGUGAAG
// result -1

// query Another sequence to check: CUGUGAGUAGGAUAUGAUCACAAGUACAUGAGGAUCACCCAUGUGUGGCUCUGUACCGCCUCAGAAGGACUCGUCU
// result 1

// query Another sequence to check: GCUGUAGAAGGAUAUCACAGGAUGGACAUGAGGAUCACCCAUGUUCUUUACUCCGCACCUUGAGAAGGUCUAAGUC
// result -1

// query Another sequence to check: GUGUACUUUGAAGGAUAUAACGGCGGCAUUUUCUUAGAAGGUCAAGGGACAUGAGGAUCACCCAUGUUAACAUUGGUUCUAACA
// result -1

====

Tested on: MS2 coat protein
Assay summary: apparent Kd, MS2 coat protein; higher = weaker binding; RNA-MaP array
Setup conditions: designed as: OFF switch for flavin mononucleotide; no ligand
# binarize apparent Kd: threshold 10 nM inclusive, high side rule met, low side rule not met

UAUUGUUUAGGAUAUACAUGAGGAUCACCCAUGUCAACGACCGUUAUAAAAUCUAAGUGUAGAAGGAAACGCCC : rule met

// query Quick check: does UUUUUAUGGCAGACUACCGCACAUGAGGAUCACCCAUGUUACAGAAGGGACCACAUCCCACCUGGUCAGGAUAUGUAUACGCGG have apparent Kd greater than or equal to 10 nM?
// result rule not met

// query Another sequence to check: UCGGACGGAGGAUAUACUAUGACUCCCACGGCAUGUUACGCACAUGAGGAUCACCCAUGUAGAAGGCCGCCUAA
// result rule not met

====

apparent Kd listing for selected sequences.
Test system: MS2 coat protein
Assay summary: apparent Kd, MS2 coat protein; higher = weaker binding; RNA-MaP array; FMN 200 µM where present
Setup conditions: ligand present: flavin mononucleotide; designed as: OFF switch for flavin mononucleotide
Express your answer in nM, writing the number without its unit.

AGGUGACAUGAGGAUCACCCAUGUCAGGAUAUAUACACCGCCGGCGUGAAGCCGGCGGAUAGAAGGGACAAAAU : 21.3
UGUAUGGACAGAGGAUAUACGGAUAGGAUCUACUAUCAAACAAGUCCUACAUGAGGAUCACCCAUGUAGAAGGCUGUCCAUACU : 22.7
AAAAAGGGAGGAUAUACAUGAGGAUCACCCAUGUAUCAGACGAAAAAGAGUCUGAAGUGUAGAAGGCCCAAAAA : 27.4
AACAGCUCGUCAGGAUAUACAAUACUGCUUCGGCAGUAUGAUAAGAUAACAUGAGGAUCACCCAUGUAGAAGGGACGAGCUGAA : 7.47
CGGCAUCAUGUAGGAUAUGCGUGGCGAAGCUAUGCAGAAGGACAUGAGGAUCACCCAUGUCUUAGCUAGCGUACUAGCUUGCCG : 16.6

// query Quick check: apparent Kd of UAAGAUUAUUGAGGAUAUGGUAAUUUUUAUUAACCAGAAGGCAAACUCAACAUGAGGAUCACCCAUGUAUAAAGGGUAUUAGUU ?
// result 63.4

// query Another sequence to check: CUUUUGUGAGGAUAUUGGUAGUAAAUGAAUAAAAUUAUUACCGAGAAGGUACAUGAGGAUCACCCAUGUUCCUC
// result 27.9

// query Another sequence to check: UUUAUUUUGCAAGGAUAUGUUUAAUUUUAGUUUCCUUAAACAUGAGGAUCACCCAUGUUAUACUUACAGAAGGUGCAUAAUUUU
// result 52.5

// query Another sequence to check: AUAGAAAGAUUAAUAUGAUUACAUGAGGAUCACCCAUGUAUAAAGGAUAUCGACGUCAAUGACGUCGAGAAGGUUAUACAUAAU
// result 84

// query Another sequence to check: AAAGUGUGAGGAUAUCCGGGACUGGGCCGGGAGGUUCGGAAGGAGAAGGCACAUGAGGAUCACCCAUGUAACGG
// result 44.3

// query Another sequence to check: CUCUUGUAAGGAUAUGCUGCUCGUCACGAAAGUGAUGAGUAGCAGAAGGUACAUGAGGAUCACCCAUGUAAAUA
// result 34.9

// query Another sequence to check: CUCAGACAUGAGGAUCACCCAUGUUAGGAUAUAUAAAAGAGCGGCAGAGCGCUCUUCCAUAGAAGGAGCAGUGU
// result 27.7

// query Another sequence to check: AAAUUUAACGAAGGAUAUGCUAACAUGAGGAUCACCCAUGUGUGCUUUGUGUUGCUGAAAUUGGAGCAGAAGGUCGUAUACAUA
// result 145

// query Another sequence to check: GUGUUGUCAGGAUAUCUUACAUAACUAUCGUUGUUACCAUUGGAGAAGGGACAUGAGGAUCACCCAUGUUAUCG
// result 25.4
